Target: T1, nSR100 (Mus musculus, UniProt Q8BKA3)
T1 construct: host or cells: mouse N2A cells
T1 sequence (Q8BKA3 1-608): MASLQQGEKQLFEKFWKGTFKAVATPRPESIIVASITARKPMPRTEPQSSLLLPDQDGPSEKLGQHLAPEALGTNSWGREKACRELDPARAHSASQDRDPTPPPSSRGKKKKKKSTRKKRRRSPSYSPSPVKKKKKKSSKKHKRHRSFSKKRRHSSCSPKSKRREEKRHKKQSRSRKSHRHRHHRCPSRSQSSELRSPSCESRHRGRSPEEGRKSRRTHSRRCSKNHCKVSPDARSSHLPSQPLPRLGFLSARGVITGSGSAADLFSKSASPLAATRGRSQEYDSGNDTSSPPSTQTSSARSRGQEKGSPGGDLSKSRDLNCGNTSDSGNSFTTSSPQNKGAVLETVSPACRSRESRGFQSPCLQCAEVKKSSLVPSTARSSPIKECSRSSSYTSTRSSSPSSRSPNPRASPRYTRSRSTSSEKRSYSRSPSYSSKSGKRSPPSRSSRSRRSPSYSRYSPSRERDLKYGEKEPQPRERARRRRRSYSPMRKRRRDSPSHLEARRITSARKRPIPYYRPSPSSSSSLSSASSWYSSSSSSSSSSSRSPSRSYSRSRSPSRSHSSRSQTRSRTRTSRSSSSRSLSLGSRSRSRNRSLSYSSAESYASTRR
Assay: AP-MS nSR100 interaction partners from mouse N2A cells (Table 5)
Format: binding
Conditions: bait Srrm4, sum of spectra over 2 replicates
Provide the reported SpecSum of each item.
Hey, just send me the number, nothing else.

query: # get_value(readout='SpecSum', item= Rab5c (protein, UniProt P35278 1-216, looked up) Ras-related protein Rab-5C: MAGRGGAARPNGPAAGNKICQFKLVLLGESAVGKSSLVLRFVKGQFHEYQESTIGAAFLTQTVCLDDTTVKFEIWDTAGQERYHSLAPMYYRGAQAAIVVYDITNTDTFARAKNWVKELQRQASPNIVIALAGNKADLASKRAVEFQEAQAYADDNSLLFMETSAKTAMNVNEIFMAIAKKLPKNEPQNAAGAPGRTRGVDLQESNPASRSQCCSN )
result: 5

query: Sap18 (protein, UniProt O55128 2-153, looked up) Histone deacetylase complex …: AVESRVTQEEIKKEPEKPIDREKTCPLLLRVFTTNNGRHHRMDEFSRGNVPSSELQIYTWMDATLKELTSLVKEVYPEARKKGTHFNFAIVFMDLKRPGYRVKEIGSTMSGRKGTDDSMTLQSQKFQIGDYLDIAITPPNRAPPSSGRMRPY ?
result: 45

query: Can you handle U2af1 (protein, UniProt Q9D883 2-239, looked up) Splicing factor U2AF 35 kDa …: AEYLASIFGTEKDKVNCSFYFKIGACRHGDRCSRLHNKPTFSQTIALLNIYRNPQNSSQSADGLRCAVSDVEMQEHYDEFFEEVFTEMEEKYGEVEEMNVCDNLGDHLVGNVYVKFRREEDAEKAVIDLNNRWFNGQPIHAELSPVTDFREACCRQYEMGECTRGGFCNFMHLKPISRELRRELYGRRRKKHRSRSRSRERRSRSRDRGRGGGGGGGGGGGRERDRRRSRDRERSGRF next?
result: 46
